- Test system: HCT-116
- protocol description: Cytotoxicity against human HCT116 cells assessed as reduction in cell viability by MTT assay
- Format: functional, cell-based
pIC50: −log10 of the molar value.

{"columns": ["smiles structure", "pIC50"],
 "data": [
  ["CN(C)c1ccc(-c2c3nc(c(-c4ccc(N(C)C)cc4)c4ccc([nH]4)c(-c4ccc(C(=O)O)cc4)c4nc(c(-c5ccc(C(=O)O)cc5)c5ccc2[nH]5)C=C4)C=C3)cc1", 5.36]
]}

* * *

- Test system: MEF
- protocol description: Cytotoxicity against TDP1+/+ MEF assessed as reduction in cell viability by MTT assay
- Type: cell-based
- assay conditions: Mus musculus
measurement name: IC50

{"columns": ["smiles structure", "tgt", "measurement name", "observed value"],
 "data": [
  ["CN(C)c1ccc(-c2c3nc(c(-c4ccc(N(C)C)cc4)c4ccc([nH]4)c(-c4ccc(C(=O)O)cc4)c4nc(c(-c5ccc(C(=O)O)cc5)c5ccc2[nH]5)C=C4)C=C3)cc1", "MEF", "IC50", "> 10 µM"]
]}

* * *

- tgt: DNA topoisomerase 1 (Homo sapiens)
- Sequence (P11387 whole entry): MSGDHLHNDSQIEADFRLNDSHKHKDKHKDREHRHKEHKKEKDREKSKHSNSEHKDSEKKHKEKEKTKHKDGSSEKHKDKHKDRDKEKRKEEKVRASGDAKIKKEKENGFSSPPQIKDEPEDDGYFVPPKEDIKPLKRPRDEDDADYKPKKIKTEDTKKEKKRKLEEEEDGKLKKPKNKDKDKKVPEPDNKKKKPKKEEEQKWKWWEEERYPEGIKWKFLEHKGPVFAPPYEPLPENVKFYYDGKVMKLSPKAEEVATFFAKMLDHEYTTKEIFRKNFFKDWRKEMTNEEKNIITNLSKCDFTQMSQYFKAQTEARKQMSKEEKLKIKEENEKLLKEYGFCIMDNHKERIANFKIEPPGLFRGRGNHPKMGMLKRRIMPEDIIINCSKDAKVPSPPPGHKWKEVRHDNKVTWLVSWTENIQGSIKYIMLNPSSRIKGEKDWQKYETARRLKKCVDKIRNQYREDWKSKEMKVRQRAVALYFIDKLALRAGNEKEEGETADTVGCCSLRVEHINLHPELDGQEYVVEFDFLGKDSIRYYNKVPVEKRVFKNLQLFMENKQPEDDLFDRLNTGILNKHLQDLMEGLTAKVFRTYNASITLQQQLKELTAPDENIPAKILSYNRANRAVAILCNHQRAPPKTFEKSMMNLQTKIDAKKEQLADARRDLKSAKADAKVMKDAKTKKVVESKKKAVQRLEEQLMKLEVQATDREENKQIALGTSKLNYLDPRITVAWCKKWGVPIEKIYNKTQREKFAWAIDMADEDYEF
- protocol description: Inhibition of recombinant human topoisomerase-1 expressed in baculovirus infected sf9 cells using supercoiled pBS SK(+) DNA as substrate after 15 mins by ethidium bromide staining based agarose gel electrophoresis method
pEC50: −log10 of the molar value.

{"columns": ["smiles structure", "operator symbol", "pEC50"],
 "data": [
  ["Brc1ccc(-c2c3nc(c(-c4ccncc4)c4ccc([nH]4)c(-c4ccc(Br)cc4)c4nc(c(-c5ccncc5)c5ccc2[nH]5)C=C4)C=C3)cc1", "<", 4.30],
  ["Brc1ccc(-c2c3nc(c(-c4ccncc4)c4ccc([nH]4)c(-c4ccncc4)c4nc(c(-c5ccncc5)c5ccc2[nH]5)C=C4)C=C3)cc1", "<", 4.30],
  ["O=C(O)c1ccc(-c2c3nc(c(-c4ccc(C(=O)O)cc4)c4ccc([nH]4)c(-c4ccc(C(=O)O)cc4)c4nc(c(-c5ccc(C(=O)O)cc5)c5ccc2[nH]5)C=C4)C=C3)cc1", "=", 5.70],
  ["Brc1ccc(-c2c3nc(c(-c4ccc(-c5ccncc5)cc4)c4ccc([nH]4)c(-c4ccc(Br)cc4)c4nc(c(-c5ccc(-c6ccncc6)cc5)c5ccc2[nH]5)C=C4)C=C3)cc1", "<", 4.30],
  ["CN(C)c1ccc(-c2c3nc(c(-c4ccc(N(C)C)cc4)c4ccc([nH]4)c(-c4ccc(N(C)C)cc4)c4nc(c(-c5ccc(C(=O)O)cc5)c5ccc2[nH]5)C=C4)C=C3)cc1", "=", 5.71],
  ["Brc1ccc(-c2c3nc(c(-c4ccc(Br)cc4)c4ccc([nH]4)c(-c4ccncc4)c4nc(c(-c5ccncc5)c5ccc2[nH]5)C=C4)C=C3)cc1", "<", 4.30],
  ["Nc1ccc(-c2ccc(-c3c4nc(c(-c5ccc(-c6ccc(N)cc6)cc5)c5ccc([nH]5)c(-c5ccncc5)c5nc(c(-c6ccncc6)c6ccc3[nH]6)C=C5)C=C4)cc2)cc1", "=", 4.08],
  ["C1=Cc2nc1c(-c1ccccc1)c1ccc([nH]1)c(-c1ccccc1)c1nc(c(-c3ccccc3)c3ccc([nH]3)c2-c2ccccc2)C=C1", "<", 4.30],
  ["C1=Cc2nc1c(-c1ccncc1)c1ccc([nH]1)c(-c1ccncc1)c1nc(c(-c3ccncc3)c3ccc([nH]3)c2-c2ccncc2)C=C1", "<", 4.30],
  ["CN(C)c1ccc(-c2c3nc(c(-c4ccc(N(C)C)cc4)c4ccc([nH]4)c(-c4ccc(C(=O)O)cc4)c4nc(c(-c5ccc(C(=O)O)cc5)c5ccc2[nH]5)C=C4)C=C3)cc1", "=", 5.83]
]}
